# Test system: steroid metabolism in MCF-7 cells
# assay_explanation: Inhibition of steroid metabolism by RES in MCF-7 cells (LC–HRMS)
# experimental_parameters: MCF-7, 5 μM RES
# Method: Briefly, cartridges were preconditioned with 2 × 1.0 ml acetonitrile and 3 × 1.0 ml ammonium acetate buffer (10 mM, pH = 5.0), and the samples were loaded onto the columns. […] LC was performed with an UltiMate 3000 RSLC-series system coupled to a maXis HD ESI-Qq-TOF mass spectrometer (Bruker Corporation, Bremen, Germany). […] In the range of m/z 150–500, full-scan mass spectra were recorded. […]
Give Vmax for every item shown.
Give bare numbers, in fmol/10^6 cells/h.

Study these solved cases before continuing.
1) C[C@]12CCC(=O)C=C1CC[C@@H]1[C@@H]2CC[C@]2(C)C(=O)CC[C@@H]12 [AD, 4-androstene-3,17-dione]: 148.5
2) C[C@]12CC[C@@H]3c4ccc(O[C@@H]5O[C@H](C(=O)O)[C@@H](O)[C@H](O)[C@H]5O)cc4CC[C@H]3[C@@H]1CC[C@@H]2O [E2-G, 17β-estradiol-3-O-(β-D-glucuronide)]: 7.00

Next, consider the following compound.
Ask | What does the data say about its Vmax? Entry: C[C@]12CC[C@H](OS(=O)(=O)O)CC1=CC[C@@H]1[C@@H]2CC[C@]2(C)C(=O)CC[C@@H]12 [DHEA-S, dehydroepiandrosterone-3-O-sulfate]
Reply | 2766.2

---

# Tested on: MDA-MB-231 cells
# experimental_parameters: MDA-MB-231, precursor DHEA or E1 0–100 nM, 48 h, Michaelis–Menten
Assignment: determine reported Km for the given compounds.
Give bare numbers, in nM.

Worked set:
1. C[C@]12CCC(=O)C=C1CC[C@@H]1[C@@H]2CC[C@]2(C)C(=O)CC[C@@H]12: 126
2. C[C@]12CC[C@@H]3c4ccc(OS(=O)(=O)O)cc4CC[C@H]3[C@@H]1CC[C@@H]2O [E2-S, 17β-estradiol-3-O-sulfate]: 38
3. C[C@]12CC[C@@H]3c4ccc(OS(=O)(=O)O)cc4CC[C@H]3[C@@H]1CCC2=O [E1-S, estrone-3-O-sulfate]: 120
4. C[C@]12CC[C@@H]3c4ccc(O[C@@H]5O[C@H](C(=O)O)[C@@H](O)[C@H](O)[C@H]5O)cc4CC[C@H]3[C@@H]1CC[C@@H]2O [E2-G, 17β-estradiol-3-O-(β-D-glucuronide)]: 87.9
5. C[C@]12CC[C@@H]3c4ccc(O)cc4CC[C@H]3[C@@H]1CC[C@@H]2O [E2, 17β-estradiol]: 174
6. C[C@]12CC[C@H]3[C@@H](CCC4=CC(=O)CC[C@@]43C)[C@@H]1CC[C@@H]2O: 56.3

Next item in the queue.
Ask | Any idea what its Km is? The compound is C[C@]12CC[C@H](OS(=O)(=O)O)CC1=CC[C@@H]1[C@@H]2CC[C@]2(C)C(=O)CC[C@@H]12 [DHEA-S, dehydroepiandrosterone-3-O-sulfate]
Reply | 55.4

---

# Tested on: MCF-7 cells
# experimental_parameters: MCF-7, 100 nM E1, 48 h
experimental_endpoint: formation rate (fmol/10^6 cells/h)
One number for each entry, in fmol/10^6 cells/h.

See these solved cases before continuing.
1. C[C@]12CC[C@@H]3c4ccc(OS(=O)(=O)O)cc4CC[C@H]3[C@@H]1CC[C@@H]2O [E2-S, 17β-estradiol-3-O-sulfate]: 11.8
2. C[C@]12CC[C@@H]3c4ccc(O)cc4CC[C@H]3[C@@H]1CC[C@@H]2O [E2, 17β-estradiol]: 233.9
3. C[C@]12CC[C@@H]3c4ccc(OS(=O)(=O)O)cc4CC[C@H]3[C@@H]1CCC2=O [E1-S, estrone-3-O-sulfate]: 15.1

Ask | For the compound C[C@]12CC[C@@H]3c4ccc(O)cc4CC[C@H]3[C@@H]1C[C@@H](O)[C@@H]2O [E3, 16α-hydroxy-17β-estradiol] , what formation rate is on record?
Reply | 0.57
